# STUDY SYSTEM: Ketohexokinase (Homo sapiens)
# Sequence (P50053 whole entry): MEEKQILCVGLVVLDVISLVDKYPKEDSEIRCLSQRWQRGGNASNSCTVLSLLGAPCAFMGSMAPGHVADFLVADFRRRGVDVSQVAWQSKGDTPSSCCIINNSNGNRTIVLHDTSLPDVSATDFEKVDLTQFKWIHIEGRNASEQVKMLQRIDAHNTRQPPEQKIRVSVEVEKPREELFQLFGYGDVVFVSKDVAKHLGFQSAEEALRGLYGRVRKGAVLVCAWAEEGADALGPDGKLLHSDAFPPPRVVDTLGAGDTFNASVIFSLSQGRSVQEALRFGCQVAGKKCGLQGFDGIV
# ASSAY PROTOCOL: Inhibition of KHK in human HepG2 cells incubated for 3 hrs by Rapidfire MS analysis
# Type: cell-based
EXPERIMENTAL ENDPOINT: IC50 (nM)

C[C@H]1CCN1c1nc(-c2cnn(CC(=O)N3CCN(C)CC3)c2)cc(C(F)(F)F)c1C#N : 36
C[C@H]1CCN1c1nc(-c2cnn(CC(=O)N3CCNCC3)c2)cc(C(F)(F)F)n1 : 41
C[C@H]1CCN1c1nc(-c2cnn(CCO)c2)cc(C(F)(F)F)c1C#N : 48
